- System: Y181C mutant HIV-1 strain
- protocol details: Anti-HIV-1 activity against Y181C mutant strain in MT-4 cells
- Type: cell-based
- measurement context: Human immunodeficiency virus 1, MT4, read-out: EC50 Y181C
value kind: pEC50
In plain terms, pEC50 is the concentration in mol/L turned into minus its base-10 logarithm.

Respond only with pEC50 recorded for Nc1ccn([C@@H]2CS[C@H](CO)O2)c(=O)n1 [Compound 3TC, lamivudine, reference compound]
5.32

Respond only with pEC50 recorded for Cc1cc(C#N)cc(C)c1Oc1nc(Nc2ccc(C#N)cc2)nc(N)c1Br [ETR, etravirine, reference compound]
7.77

Respond only with pEC50 recorded for Cc1cc(/C=C/C#N)cc(C)c1Nc1ccnc(Nc2ccc(C#N)cc2)n1 [RPV, rilpivirine, reference compound]
8.52

Respond only with pEC50 recorded for Cc1ccnc2c1NC(=O)c1cccnc1N2C1CC1 [NVP, nevirapine, reference compound]
5.22

---

- Tested on: K103N mutant HIV-1 strain
- protocol details: Anti-HIV-1 activity against K103N mutant strain in MT-4 cells
- Type: cell-based
- measurement context: MT-4 cells; read-out: EC50 K103N
Mark each entry MET if its EC50 sits below 7 µM, and NOT MET for all others.

Determine if N#Cc1ccc(Nc2nccc(C(C#N)c3ccc(-c4ccc(C#N)cc4)cc3F)n2)cc1 (racemic) [Compound 10p] shows EC50 strictly lower than 7 µM.
MET

Determine if Cc1ccccc1-c1ccc(C(C#N)c2ccnc(Nc3ccc(C#N)cc3)n2)c(F)c1 (racemic) [Compound 10d] shows EC50 strictly lower than 7 µM.
NOT MET

Determine if N#Cc1ccc(Nc2nccc(C(C#N)c3ccc(-c4cccc(F)c4)cc3F)n2)cc1 (racemic) [Compound 10k] shows EC50 strictly lower than 7 µM.
NOT MET

Determine if N#Cc1ccc(Nc2nccc(C(C#N)c3ccc(-c4ccccc4)c(F)c3)n2)cc1 (racemic) [Compound 10b] shows EC50 strictly lower than 7 µM.
NOT MET

Determine if N#Cc1ccc(Nc2nccc(C(C#N)c3ccc(-c4ccccc4F)cc3F)n2)cc1 (racemic) [Compound 10j] shows EC50 strictly lower than 7 µM.
MET

Determine if N#Cc1ccc(Nc2nccc(C(C#N)c3ccc(-c4ccc(Cl)cc4)cc3F)n2)cc1 (racemic) [Compound 10o] shows EC50 strictly lower than 7 µM.
NOT MET

Determine if N#Cc1ccc(Nc2nccc(C(C#N)c3ccc(-c4ccccc4)cc3)n2)cc1 (racemic) [Compound 10a] shows EC50 strictly lower than 7 µM.
NOT MET

Determine if Cc1cccc(-c2ccc(C(C#N)c3ccnc(Nc4ccc(C#N)cc4)n3)c(F)c2)c1 (racemic) [Compound 10e] shows EC50 strictly lower than 7 µM.
NOT MET

Determine if COc1cccc(-c2ccc(C(C#N)c3ccnc(Nc4ccc(C#N)cc4)n3)c(F)c2)c1 (racemic) [Compound 10h] shows EC50 strictly lower than 7 µM.
NOT MET

Determine if COc1ccccc1-c1ccc(C(C#N)c2ccnc(Nc3ccc(C#N)cc3)n2)c(F)c1 (racemic) [Compound 10g] shows EC50 strictly lower than 7 µM.
NOT MET

Determine if COc1ccc(-c2ccc(C(C#N)c3ccnc(Nc4ccc(C#N)cc4)n3)c(F)c2)cc1 (racemic) [Compound 10i] shows EC50 strictly lower than 7 µM.
NOT MET

Determine if Cc1ccc(-c2ccc(C(C#N)c3ccnc(Nc4ccc(C#N)cc4)n3)c(F)c2)cc1 (racemic) [Compound 10f] shows EC50 strictly lower than 7 µM.
NOT MET

Determine if N#Cc1ccc(Nc2nccc(C(C#N)c3ccc(-c4ccccc4Cl)cc3F)n2)cc1 (racemic) [Compound 10m] shows EC50 strictly lower than 7 µM.
MET

Determine if N#Cc1ccc(Nc2nccc(C(C#N)c3ccc(-c4ccccc4)cc3F)n2)cc1 (racemic) [Compound 10c] shows EC50 strictly lower than 7 µM.
NOT MET

---

- Test system: F227L + V106A double RT mutant HIV-1 strain
- protocol details: Anti-HIV-1 activity against F227L + V106A double mutant strain in MT-4 cells
- Assay type: cell-based
- measurement context: MT-4 cells; read-out: EC50 F227L + V106A
value kind: EC50

Respond only with EC50 recorded for Cc1ccc(-c2ccc(C(C#N)c3ccnc(Nc4ccc(C#N)cc4)n3)c(F)c2)cc1 (racemic) [Compound 10f]
> 30.9 µM

Respond only with EC50 recorded for COc1cccc(-c2ccc(C(C#N)c3ccnc(Nc4ccc(C#N)cc4)n3)c(F)c2)c1 (racemic) [Compound 10h]
> 30.7 µM

Respond only with EC50 recorded for N#Cc1ccc(Nc2nccc(C(C#N)c3ccc(-c4ccccc4F)cc3F)n2)cc1 (racemic) [Compound 10j]
> 27.9 µM

Respond only with EC50 recorded for COc1ccccc1-c1ccc(C(C#N)c2ccnc(Nc3ccc(C#N)cc3)n2)c(F)c1 (racemic) [Compound 10g]
> 30 µM

Respond only with EC50 recorded for N#Cc1ccc(Nc2nccc(C(C#N)c3ccc(-c4ccccc4)c(F)c3)n2)cc1 (racemic) [Compound 10b]
> 27.3 µM

Respond only with EC50 recorded for N#Cc1ccc(Nc2nccc(C(C#N)c3ccc(-c4ccccc4)cc3)n2)cc1 (racemic) [Compound 10a]
> 30.8 µM

Respond only with EC50 recorded for N#Cc1ccc(Nc2nccc(C(C#N)c3ccc(-c4ccc(F)cc4)cc3F)n2)cc1 (racemic) [Compound 10l]
> 25.6 µM

---

Please respond with reported IC50 for every item in the list.
Note: unit nM is implicit; provide only the numeric part.

Provide measured IC50 on WT HIV-1 RT (Human immunodeficiency virus type 1 group M subtype B, UniProt P03366) for N#Cc1ccc(Nc2nccc(C(C#N)c3ccc(-c4ccccc4)c(F)c3)n2)cc1 (racemic) [Compound 10b] please.
460

Provide measured IC50 on WT HIV-1 RT (Human immunodeficiency virus type 1 group M subtype B, UniProt P03366) for N#Cc1ccc(Nc2nccc(C(C#N)c3ccc(-c4cccc(F)c4)cc3F)n2)cc1 (racemic) [Compound 10k] please.
188

Provide measured IC50 on WT HIV-1 RT (Human immunodeficiency virus type 1 group M subtype B, UniProt P03366) for N#Cc1ccc(Nc2nccc(C(C#N)c3ccc(-c4cccc(Cl)c4)cc3F)n2)cc1 (racemic) [Compound 10n] please.
171

Provide measured IC50 on WT HIV-1 RT (Human immunodeficiency virus type 1 group M subtype B, UniProt P03366) for Cc1ccccc1-c1ccc(C(C#N)c2ccnc(Nc3ccc(C#N)cc3)n2)c(F)c1 (racemic) [Compound 10d] please.
74

Provide measured IC50 on WT HIV-1 RT (Human immunodeficiency virus type 1 group M subtype B, UniProt P03366) for COc1cccc(-c2ccc(C(C#N)c3ccnc(Nc4ccc(C#N)cc4)n3)c(F)c2)c1 (racemic) [Compound 10h] please.
219

Provide measured IC50 on WT HIV-1 RT (Human immunodeficiency virus type 1 group M subtype B, UniProt P03366) for Cc1cccc(-c2ccc(C(C#N)c3ccnc(Nc4ccc(C#N)cc4)n3)c(F)c2)c1 (racemic) [Compound 10e] please.
101

Provide measured IC50 on WT HIV-1 RT (Human immunodeficiency virus type 1 group M subtype B, UniProt P03366) for COc1ccccc1-c1ccc(C(C#N)c2ccnc(Nc3ccc(C#N)cc3)n2)c(F)c1 (racemic) [Compound 10g] please.
233

Provide measured IC50 on WT HIV-1 RT (Human immunodeficiency virus type 1 group M subtype B, UniProt P03366) for N#Cc1ccc(Nc2nccc(C(C#N)c3ccc(-c4ccc(C#N)cc4)cc3F)n2)cc1 (racemic) [Compound 10p] please.
59

Provide measured IC50 on WT HIV-1 RT (Human immunodeficiency virus type 1 group M subtype B, UniProt P03366) for N#Cc1ccc(Nc2nccc(C(C#N)c3ccc(-c4ccccc4)cc3F)n2)cc1 (racemic) [Compound 10c] please.
62

Provide measured IC50 on WT HIV-1 RT (Human immunodeficiency virus type 1 group M subtype B, UniProt P03366) for N#Cc1ccc(Nc2nccc(C(C#N)c3ccc(-c4ccccc4F)cc3F)n2)cc1 (racemic) [Compound 10j] please.
58

Provide measured IC50 on WT HIV-1 RT (Human immunodeficiency virus type 1 group M subtype B, UniProt P03366) for N#Cc1ccc(Nc2nccc(C(C#N)c3ccc(-c4ccccc4Cl)cc3F)n2)cc1 (racemic) [Compound 10m] please.
74

Provide measured IC50 on WT HIV-1 RT (Human immunodeficiency virus type 1 group M subtype B, UniProt P03366) for Cc1ccc(-c2ccc(C(C#N)c3ccnc(Nc4ccc(C#N)cc4)n3)c(F)c2)cc1 (racemic) [Compound 10f] please.
93

---

Please respond with reported EC50 for every item in the list.
- Test system: L100I mutant HIV-1 strain
- protocol details: Anti-HIV-1 activity against L100I mutant strain in MT-4 cells
- Format: cell-based
- measurement context: Human immunodeficiency virus 1, MT4, read-out: EC50 L100I
Note: unit nM is implicit; provide only the numeric part.

Respond only with EC50 recorded for Cc1ccnc2c1NC(=O)c1cccnc1N2C1CC1 [NVP, nevirapine, reference compound]
980

Respond only with EC50 recorded for Cc1cc(/C=C/C#N)cc(C)c1Nc1ccnc(Nc2ccc(C#N)cc2)n1 [RPV, rilpivirine, reference compound]
2

Respond only with EC50 recorded for Cc1cc(C#N)cc(C)c1Oc1nc(Nc2ccc(C#N)cc2)nc(N)c1Br [ETR, etravirine, reference compound]
8

Respond only with EC50 recorded for Nc1ccn([C@@H]2CS[C@H](CO)O2)c(=O)n1 [Compound 3TC, lamivudine, reference compound]
1960
